- target-system: Bcl-xL, Q07817
- Sequence (Q07817 1-209): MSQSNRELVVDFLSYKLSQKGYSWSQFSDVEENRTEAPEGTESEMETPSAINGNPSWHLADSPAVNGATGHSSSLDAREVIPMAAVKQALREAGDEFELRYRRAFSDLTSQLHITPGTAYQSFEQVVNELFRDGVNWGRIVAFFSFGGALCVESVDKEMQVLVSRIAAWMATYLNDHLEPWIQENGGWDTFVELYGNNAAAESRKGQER
- assay-protocol: peptide SPOT array, c-Myc-tagged receptor at 1 uM or 100 nM, anti-c-Myc-Cy3
reported-property: SPOT signal as a fraction of Bim BH3's signal on the same receptor and array

>>> measured_value("VLLTLLVAAVLRCQGQDVQEAGSCVQ [COL2A1]")
0.06
>>> measured_value("CQGDTVISECLQRFADSLQEVVNYHM [ACAP3]")
0.02
>>> measured_value("TLHFNQRGTWLASGSDDLKVVVWDWV [DCAF8]")
0.02
>>> measured_value("ISDVQVFGYSLRFNLDLLRSAVQQVN [DBC1]")
0.03
>>> measured_value("RQAFYLHTTKLTRILRRLCREILRPW [MTA1]")
0.85
>>> measured_value("PAKKMTLSEIYRWICDNFPYYKNAGI [FOXJ2]")
2.03
>>> measured_value("RRTSINVVRHLGIVLECNIQFALHPT [CPS1]")
0.14
